Task for the reader: assign each of the following compounds its reported log10(EC50).
Tested on: NS5A chimeric genotype 2a JFH-1 replicon with genotype 2b MD2b-1 strain NS5A gene (M31 present)
MEASUREMENT_NOTES: microbe, parasite or virus in culture
Type: cell-based, HCV
TEST_CONDITIONS: Hepatitis C virus, read-out: 2b (s) (nM)
Log scale reminder: EC50 in nM, then log10 taken.

Here is how some compounds turned out for log10(EC50).
COC[C@H]1C[C@@H](c2nc3ccc4cc5c(cc4c3[nH]2)OCc2cc(-c3cnc([C@@H]4C[C@H](C)CN4C(=O)[C@@H](NC(=O)OC)C(C)C)[nH]3)ccc2-5)N(C(=O)[C@H](NC(=O)OC)c2ccccc2)C1 : -1.40
COC(=O)N[C@H](C(=O)N1C[C@@H](COC(F)F)C[C@H]1c1nc2ccc3cc4c(cc3c2[nH]1)OCc1cc(-c2cnc(C3CCCN3C(=O)OC(C)(C)C)[nH]2)ccc1-4)C(C)C (stereo partly drawn) : -1.24
COC[C@H]1C[C@@H](c2ncc(-c3ccc4c(c3)COc3cc5c(ccc6nc([C@@H]7CC[C@H](C)N7C(=O)[C@@H](NC(=O)OC)C(C)C)[nH]c65)cc3-4)[nH]2)N(C(=O)[C@@H](NC(=O)OC)C(C)C)C1 : -0.41
COC[C@H]1C[C@@H](c2ncc(-c3ccc4c(c3)COc3cc5c(ccc6nc([C@@H]7CCCN7C(=O)[C@@H](NC(=O)OC)C(C)C)[nH]c65)cc3-4)[nH]2)N(C(=O)[C@H](NC(=O)OC)c2ccccc2)C1 : -1.60
COC(=O)N[C@H](C(=O)N1[C@@H](C)CC[C@H]1c1ncc(-c2ccc3c(c2)COc2cc4c(ccc5nc([C@@H]6CC[C@H](C)N6C(=O)[C@@H](NC(=O)OC)[C@@H](C)OC)[nH]c54)cc2-3)[nH]1)[C@@H](C)OC : -1.27

Query :: Recall and state the measured log10(EC50) for COC(=O)N[C@H](C(=O)N1[C@@H](C)CC[C@H]1c1ncc(-c2ccc3c(c2)COc2cc4c(ccc5nc([C@@H]6CCCN6C(=O)[C@@H](NC(=O)OC)C6CCOCC6)[nH]c54)cc2-3)[nH]1)C(C)C .
Result :: -1.44

----------
Test system: NS5A chimeric genotype 1b Con1 replicon with genotype 4a ED43 strain NS5A gene
MEASUREMENT_NOTES: microbe, parasite or virus in culture
Format: cell-based, HCV
TEST_CONDITIONS: Hepatitis C virus, read-out: 4a
pEC50: −log10 of the molar value.
I'd be grateful if you could share measured pEC50 for these entries.

COC(=O)N[C@H](C(=O)N1CCC[C@H]1c1nc2ccc3cc4c(cc3c2[nH]1)OCc1cc(-c2cnc([C@@H]3CCCN3C(=O)[C@H](NC(=O)C3CC3)c3ccccc3)[nH]2)ccc1-4)C(C)C : > 9.00

Query :: For COC[C@H]1C[C@@H](c2nc3ccc4cc5c(cc4c3[nH]2)OCc2cc(-c3cnc([C@@H]4CCCN4C(=O)[C@H](NC(=O)C4CC4)c4ccccc4)[nH]3)ccc2-5)N(C(=O)[C@@H](NC(=O)OC)C(C)C)C1 , write its pEC50.
Result :: > 9.00

----------
System: NS5A chimeric genotype 2a JFH-1 replicon with genotype 2b MD2b-1 strain NS5A gene (M31 present)
MEASUREMENT_NOTES: microbe, parasite or virus in culture
Assay type: cell-based, HCV
TEST_CONDITIONS: Hepatitis C virus, read-out: 2b (s) (nM)
MEASUREMENT_TYPE: EC50 (nM)
Answers are plain numbers, in nM.

COC(=O)N[C@H](C(=O)N1C[C@@H](C)C[C@H]1c1nc2ccc3cc4c(cc3c2[nH]1)OCc1cc(-c2cnc([C@@H]3CCCN3C(=O)[C@H](NC(=O)OC)c3ccccc3)[nH]2)ccc1-4)C(C)C : 0.039

Please find the next molecule below.
Query :: Specify EC50 for COC[C@H]1C[C@@H](c2nc3ccc4cc5c(cc4c3[nH]2)OCc2cc(-c3cnc([C@@H]4CC[C@H](C)N4C(=O)[C@@H](NC(=O)OC)C(C)C)[nH]3)ccc2-5)N(C(=O)[C@@H](NC(=O)OC)C(C)C)C1 and stop.
Result :: 0.184

----------
I'd be grateful if you could share measured EC50 for these entries.
Test system: NS5A chimeric genotype 2a JFH-1 replicon with genotype 2b MD2b-1 strain NS5A gene (M31 present)
MEASUREMENT_NOTES: microbe, parasite or virus in culture
Format: cell-based, HCV
TEST_CONDITIONS: Hepatitis C virus, read-out: 2b (s) (nM)
In your response, put the unit directly after the numeric value.

COC(=O)N[C@H](C(=O)N1[C@H](c2nc3ccc4cc5c(cc4c3[nH]2)OCc2cc(-c3cnc(C4CCCN4C(=O)[C@@H](NC(=O)OC)C4CCOCC4)[nH]3)ccc2-5)C[C@@H]2CCC[C@@H]21)C(C)C (some centres unmarked) [Example PP] : 0.11 nM
COC(=O)N[C@H](C(=O)N1CCC[C@H]1c1nc2c([nH]1)-c1cc3c(cc1CC2)-c1ccc(-c2cnc([C@@H]4CCCN4C(=O)[C@H](NC(=O)C4CC4)c4ccccc4)[nH]2)cc1CO3)C(C)C [Compound 494] : 0.017 nM
COC(=O)N[C@H](C(=O)N1CCC[C@H]1c1ncc(-c2ccc3c(c2)COc2cc4c(ccc5nc([C@@H]6CCCN6C(=O)[C@H](NC(=O)OC)c6ccccc6)[nH]c54)cc2-3)[nH]1)[C@@H](C)OC [Compound 588] : 0.017 nM
COC[C@H]1C[C@@H](c2ncc(-c3ccc4c(c3)COc3cc5c(ccc6nc([C@@H]7CCCN7C(=O)[C@@H](NC(=O)OC)C(C)C)[nH]c65)cc3-4)[nH]2)N(C(=O)[C@H](N)c2ccccc2)C1 [Example OL] : 0.052 nM
COC[C@H]1C[C@@H](c2nc3ccc4cc5c(cc4c3[nH]2)OCc2cc(-c3cnc([C@@H]4CCCN4C(=O)[C@@H](NC(=O)OC)C(C)C)[nH]3)ccc2-5)N(C(=O)[C@H](NC(=O)OC)c2ccccc2)C1 [Example LR-1] : 0.024 nM
COC(=O)N[C@H](C(=O)N1[C@@H](C)CC[C@H]1c1ncc(-c2ccc3c(c2)COc2cc4c(ccc5nc([C@@H]6C[C@H](C)CN6C(=O)[C@H](NC(=O)OC)c6ccccc6)[nH]c54)cc2-3)[nH]1)C(C)C [Compound 617] : 0.011 nM
COC[C@H]1C[C@@H](c2nc3ccc4cc5c(cc4c3[nH]2)OCc2cc(-c3ccc4nc([C@@H]6CCCN6C(=O)[C@@H](NC(=O)OC)C(C)C)[nH]c4c3)ccc2-5)N(C(=O)[C@@H](NC(=O)OC)C(C)C)C1 : 44.4 nM
COC[C@H]1C[C@@H](c2nc3c([nH]2)-c2cc4c(cc2CC3)-c2ccc(-c3cnc([C@@H]5CC[C@H](C)N5C(=O)[C@@H](NC(=O)OC)C(C)C)[nH]3)cc2CO4)N(C(=O)[C@H](NC(=O)OC)c2ccccc2)C1 [Example OP] : 0.007 nM
COC[C@H]1C[C@@H](c2nc3ccc4cc5c(cc4c3[nH]2)OCc2cc(-c3cnc([C@@H]4C[C@H](C)CN4C(=O)[C@@H](NC(=O)OC)C(C)C)[nH]3)ccc2-5)N(C(=O)[C@@H](NC(=O)OC)C(C)C)C1 [Example MO] : 0.427 nM
COC[C@H]1C[C@@H](c2nc3c([nH]2)-c2cc4c(cc2CC3)-c2ccc(-c3cnc([C@@H]5CCCN5C(=O)[C@@H](NC(=O)OC)C(C)C)[nH]3)cc2CO4)N(C(=O)[C@H](NC(=O)OC)c2ccccc2)C1 [Example MR] : 0.053 nM

The following compounds each have a reported value; give each one's EC50.
1. COC(=O)N[C@H](C(=O)N1CCC[C@H]1c1ncc(-c2ccc3c(c2)COc2cc4c(ccc5nc([C@@H]6C[C@H](C)CN6C(=O)[C@H](NC(=O)OC)c6ccccc6)[nH]c54)cc2-3)[nH]1)C(C)C [Example MY]
2. COC[C@H]1C[C@@H](c2ncc(-c3ccc4c(c3)COc3cc5c(ccc6nc([C@@H]7CC[C@H](C)N7C(=O)[C@@H](NC(=O)OC)C(C)C)[nH]c65)cc3-4)[nH]2)N(C(=O)[C@H](NC(=O)OC)c2ccccc2)C1 [Example PY]
3. COC(=O)N[C@H](C(=O)N1[C@@H](C)CC[C@H]1c1ncc(-c2ccc3c(c2)COc2cc4c(ccc5nc([C@@H]6CCCN6C(=O)[C@@H](NC(=O)OC)[C@@H](C)OC)[nH]c54)cc2-3)[nH]1)C(C)C [Compound 603]
4. COC(=O)N[C@H](C(=O)N1CCC[C@H]1c1nc2c([nH]1)CCc1cc3c(cc1-2)OCc1cc(-c2cnc([C@@H]4CCCN4C(=O)[C@H](NC(=O)OC)c4ccccc4)[nH]2)ccc1-3)C(C)C [Example MF]
5. COC(=O)N[C@H](C(=O)N1CCC[C@H]1c1ncc(-c2ccc3c(c2)COc2cc4c(cc2-3)CCc2[nH]c([C@@H]3CCCN3C(=O)[C@H](NC(=O)OC)c3ccccc3)nc2-4)[nH]1)C(C)C [Example MG]
6. COC(=O)N[C@H](C(=O)N1[C@@H](C)CC[C@H]1c1ncc(-c2ccc3c(c2)COc2cc4c(ccc5nc([C@@H]6CCCN6C(=O)[C@H](NC(=O)OC)c6ccccc6)[nH]c54)cc2-3)[nH]1)C(C)C [Example NQ]
7. COC[C@H]1C[C@@H](c2nc3ccc4cc5c(cc4c3[nH]2)OCc2cc(-c3cnc([C@@H]4CC[C@H](C)N4C(=O)[C@@H](NC(=O)OC)C(C)C)[nH]3)ccc2-5)N(C(=O)[C@@H](NC(=O)OC)[C@@H](C)OC)C1 [Example OM]

Result ::
1: 0.047 nM; 2: 0.03 nM; 3: 0.088 nM; 4: 0.083 nM; 5: 0.07 nM; 6: 0.012 nM; 7: 0.054 nM
